Hello, the source for this data is PubChem BioAssay, in case you need it.

# Assay details: growth modulation of vineyard yeast isolate – strain RM11-1a, OD600, basal, 24 h, primary screen (AID 1177);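 note: cultures grown under basal conditions with no added stressor; test concentration not given here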
# Measurement parameters: S. cerevisiae RM11-1a growth, OD600, 24 h; higher = more signal, called active from +8 up or from −8 down
Activity calls are given as the source filed them.

{"Smiles notation": "COCCOC(=O)N1C(=O)[C@@]2(c3cc(C#CCNC(N)=O)ccc31)[C@H](C(N)=O)[C@H]1C(=O)O[C@H](c3ccccc3)[C@H](c3ccccc3)N1[C@@H]2c1ccccc1OCCO", "z-score": "1.59 (inactive)"}
{"Smiles notation": "CCOC(=O)C1=CC[C@@H](c2ccccc2)N(S(=O)(=O)c2ccc(C)cc2)[C@H]1c1ccccc1", "z-score": "1.75 (inactive)"}
{"Smiles notation": "COC(=O)c1c(CC[C@@H](CO)NC(=O)N[C@@H](C)Cn2cc(-c3ccccn3)nn2)oc(C(C)=O)c1C(=O)OC", "z-score": "-0.37 (inactive)"}
{"Smiles notation": "CN(C)C(=O)[C@@]1(Cc2ccccc2)N=C(c2ccc(OCCCO)cc2)O[C@H]1c1ccccc1", "z-score": "0.319 (inactive)"}

---

Listed below: z-score values for each entry.
# Assay details: blockers of DNA damage checkpoint Chk1 activation – imaging, HeLa, hydroxyurea, phospho-Chk1 antibody, percent positive cells, primary screen (AID 1186)
# Measurement parameters: hydroxyurea-induced phospho-Chk1 immunofluorescence imaging, higher = more signal

{"Smiles notation": "CC1=C2[C@@H](CCc3ccccc3)OB(O)C[C@@H]2[C@@H]2C(=O)N(C)C(=O)[C@@H]2C1", "z-score": 0.0183}
{"Smiles notation": "CCOC(=O)C1=C[C@@H](C(C)(C)C)N(S(=O)(=O)c2ccc(C)cc2)[C@H]1c1cccc2ccccc12", "z-score": 0.721}
{"Smiles notation": "COc1cc2c(cc1O)C=[N+](Cc1sc3ccccc3c1Cl)CC2", "z-score": 0.399}
{"Smiles notation": "[N-]=[N+]=Nc1ccccc1C[C@@]1(C(=O)N2CCOCC2)N=C(c2ccc(OCCCO)cc2)O[C@@H]1c1ccccc1", "z-score": -1.05}

---

# Tested on: Carbonic anhydrase 2 (Homo sapiens)
# Assay details: compounds binding carbonic anhydrase 2 – biochemical, small-molecule microarray, Alexa647-labelled CAII, profiling panel (AID 1122)
# Measurement parameters: CAII-A647 binding fluorescence, higher = more signal
Listed below: composite z-score values for each entry.
Measured parameter: composite z-score

{"Compound": "Cc1ccc(S[C@]2(C(=O)NCc3ccccc3)CC(=O)N(C3CCCCC3)[C@@H]2c2ccc(CO)cc2I)cc1", "Measured parameter": "composite z-score", "Number": 0.459}
{"Compound": "O=C1C[C@]2(c3ccc([N+](=O)[O-])cc3)C(=O)N(C3CC3)c3cc(CO)ccc3[C@H]2N1CC12CC3CC(CC(C3)C1)C2", "Measured parameter": "composite z-score", "Number": 0.76}
{"Compound": "CC(C)N1C(=O)C[C@@](C(=O)O)(c2ccc([N+](=O)[O-])cc2)[C@H]1c1ccc(CO)cc1", "Measured parameter": "composite z-score", "Number": 0.754}
{"Compound": "C=C(/C(=C/C[C@H](OC(=O)c1ccncc1)c1ccc(CO)o1)c1cnc2ccccc2c1)C(C)C", "Measured parameter": "composite z-score", "Number": 0.902}
{"Compound": "COC(=O)[C@]1(CCS(=O)(=O)c2ccccc2)N=C(c2ccc(OCCCO)cc2)O[C@@H]1c1ccccc1N=[N+]=[N-]", "Measured parameter": "composite z-score", "Number": 0.78}
{"Compound": "COC(=O)C1(CC(C)C)C=C2C(=C(c3ccccc3)C(=O)C2C)CN1 (stereo unspecified)", "Measured parameter": "composite z-score", "Number": 0.502}
{"Compound": "CCCCNC(=O)c1ccc(C#CC(C)(C)C)c(OC(C)=O)c1", "Measured parameter": "composite z-score", "Number": 0.728}
{"Compound": "CC(C)[Si](C#C[Si](C(C)C)(C(C)C)C(C)C)(O[C@H](c1ccccc1)c1cn(Cc2ccccc2)nn1)C(C)C", "Measured parameter": "composite z-score", "Number": 0.237}
{"Compound": "C#Cc1cc2ccccc2oc1=O", "Measured parameter": "composite z-score", "Number": 0.637}
{"Compound": "CCCNC(=O)[C@@]1(C)c2ccccc2C(=O)N(c2ccc(C)cn2)[C@H]1c1ccc(CO)cc1", "Measured parameter": "composite z-score", "Number": 0.699}
{"Compound": "C=CC[C@@H](OC(=O)Nc1ccc(OC)cc1)c1ccc(O)c(F)c1", "Measured parameter": "composite z-score", "Number": 0.493}
{"Compound": "CC1CC/C=C\\[C@H]2OC34C=CCN(c5ccc6ccccc6c5)C(=O)[C@H]3N(CCCO)C(=O)[C@@H]4C2C(=O)O1 (stereo partly specified)", "Measured parameter": "composite z-score", "Number": 0.574}
{"Compound": "C=CCNC(=O)[C@H]1[C@@H]2C(=O)O[C@@H](c3ccccc3)[C@@H](c3ccccc3)N2[C@@H](c2ccccc2OCCO)[C@]12C(=O)N(C(=O)OCCOC)c1ccc(C#CC3(O)CCCCCC3)cc12", "Measured parameter": "composite z-score", "Number": 0.309}
{"Compound": "COCCOC(=O)N1C(=O)[C@@]2(c3cc(C#CCC(C(=O)OC)C(=O)OC)ccc31)[C@H](c1ccc(OCCO)cc1)N1[C@H](c3ccccc3)[C@H](c3ccccc3)OC(=O)[C@H]1[C@@H]2C(=O)N1CCc2cc(OC)c(OC)cc2C1", "Measured parameter": "composite z-score", "Number": 0.256}
{"Compound": "Cc1cc(C)c(C(O)C2C=CC3C(=O)N(c4ccccc4)C(=O)C3N2Nc2ccccc2F)c(C)c1 (stereo unspecified)", "Measured parameter": "composite z-score", "Number": 0.365}
{"Compound": "CCC1=C2CN(Cc3ccccc3)[C@@H](C(=O)Cc3ccccc3)C2C=CCC1 (stereo partly specified)", "Measured parameter": "composite z-score", "Number": 0.679}

---

# Assay details: resazurin metabolic signal in A549 cells – cell-based, resazurin fluorescence, 24 h, PK04 Diversity Set, profiling panel (AID 1171); note: test concentration not given here
# Measurement parameters: A549 viability, higher = more signal, called active from +8 up or from −8 down
Response field label: string, one of true (1) (z-score strictly below -0.3) or false (0).

{"Smiles notation": "COc1ccc([C@H]2OC[C@@H]3C[C@H](Cc4ccccc4)C(=O)N32)cc1", "Discrete label": "false (0)"}
{"Smiles notation": "O=C(c1ccccc1)N1C(=O)[C@]2(Cc3ccccc31)N=C(c1ccc(OCCCO)cc1)O[C@@H]2c1ccccc1", "Discrete label": "true (1)"}
{"Smiles notation": "COCCOC(=O)N1C(=O)[C@@]2(c3cc(C#CC4(O)CCCCCC4)ccc31)[C@H](C(=O)N1CCc3cc(OC)c(OC)cc3C1)[C@H]1C(=O)O[C@H](c3ccccc3)[C@H](c3ccccc3)N1[C@@H]2c1ccc(OCCO)cc1", "Discrete label": "true (1)"}
{"Smiles notation": "[N-]=[N+]=Nc1ccccc1C[C@]1(C(=O)N2CCOCC2)COC(c2ccc(OCCCO)cc2)=N1", "Discrete label": "false (0)"}
{"Smiles notation": "[N-]=[N+]=NCc1ccccc1[C@@H]1OC(c2ccc(OCCCO)cc2)=N[C@]1(CCS(=O)(=O)c1ccccc1)C(=O)O", "Discrete label": "false (0)"}
{"Smiles notation": "O=C(O)[C@@H]1C[C@@H]2C(=O)N3CCC[C@H]3C(=O)N2[C@@H]1c1ccc(O)cc1", "Discrete label": "true (1)"}
{"Smiles notation": "CC(C)N1C(=O)C[C@@](C(=O)O)(c2ccc([N+](=O)[O-])cc2)[C@H]1c1ccc(CO)cc1", "Discrete label": "true (1)"}

---

# Tested on: Torsin-1A (Homo sapiens) (UniProt O14656)
# Sequence (O14656 whole entry, looked up): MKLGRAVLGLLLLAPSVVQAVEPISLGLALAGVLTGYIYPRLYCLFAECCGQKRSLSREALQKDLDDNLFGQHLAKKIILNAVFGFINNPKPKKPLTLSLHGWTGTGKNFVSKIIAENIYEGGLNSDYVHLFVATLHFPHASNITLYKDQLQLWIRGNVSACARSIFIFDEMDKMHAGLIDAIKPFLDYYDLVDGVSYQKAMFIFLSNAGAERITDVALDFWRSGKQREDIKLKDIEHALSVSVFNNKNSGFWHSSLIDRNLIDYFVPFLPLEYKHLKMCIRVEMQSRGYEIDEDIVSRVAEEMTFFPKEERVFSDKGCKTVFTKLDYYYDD
# Assay details: TOR1A wild-type binding on microarray – cell lysate, small-molecule microarray, lysate, 635/667 nm, primary screen (AID 1149)
# Measurement parameters: COS7 hTOR1A-WT lysate, 635 nm fluorescence, higher = more signal

{"Compound": "O=C1C[C@]2(c3ccc([N+](=O)[O-])cc3)C(=O)N(C3CC3)c3cc(CO)ccc3[C@H]2N1CC12CC3CC(CC(C3)C1)C2", "composite z-score": -1.26}
{"Compound": "COCCOC(=O)N1C(=O)[C@@]2(c3cc(C#CC4(O)CCCCCC4)ccc31)[C@H](C(=O)N1CCc3cc(OC)c(OC)cc3C1)[C@H]1C(=O)O[C@H](c3ccccc3)[C@H](c3ccccc3)N1[C@@H]2c1ccc(OCCO)cc1", "composite z-score": 0.71}
{"Compound": "CCCN1C(=O)[C@@]2(Cc3ccccc31)N=C(c1ccc(OCCCO)cc1)O[C@H]2c1ccccc1", "composite z-score": 1.71}
{"Compound": "NC(=O)NCC#Cc1ccc2c(c1)[C@]1(C(=O)N2)[C@H](c2ccccc2OCCO)N2[C@H](c3ccccc3)[C@H](c3ccccc3)OC(=O)[C@H]2[C@@H]1C(=O)O", "composite z-score": -0.689}
{"Compound": "CCCCC(O)C1C=CC2C(=O)N(C)C(=O)C2N1N(c1ccccc1)c1ccccc1 (centres undefined)", "composite z-score": 0.14}
{"Compound": "C=CC[C@H](OC(=O)Nc1ccc(SC)cc1)c1ccc(O)c2ccccc12", "composite z-score": 0.557}
{"Compound": "CCOC(=O)C1=CC[C@@H](c2ccccc2)N(S(=O)(=O)c2ccc(C)cc2)[C@H]1c1ccccc1", "composite z-score": 0.345}
{"Compound": "CCC1=C2CN(Cc3ccccc3)[C@@H](C(=O)Cc3ccccc3)C2C=CCC1 (some centres undefined)", "composite z-score": -0.645}
{"Compound": "NC(=O)NCC#Cc1ccc2c(c1)[C@]1(C(=O)N2)[C@H](C(=O)N2CCN(c3ncccn3)CC2)[C@H]2C(=O)O[C@H](c3ccccc3)[C@H](c3ccccc3)N2[C@@H]1c1ccc(O)cc1", "composite z-score": 0.0312}
{"Compound": "C=CCC(OC(C)=O)[C@@H]1[C@@H](N(Cc2cccc3ccccc23)C(=O)Cc2ccc(OC)cc2)c2cc(OCCCO)ccc2N1C(=O)c1ccc(-c2ccccc2)cc1 (some centres undefined)", "composite z-score": -0.452}
{"Compound": "O=C1O[C@@H](c2ccccc2)[C@@H](c2ccccc2)N2[C@@H](c3ccc(OCCO)cc3)[C@]3(C(=O)Nc4ccc(C#CC5=CCCCC5)cc43)[C@@H](C(=O)NC[C@H](O)c3ccccc3)[C@H]12", "composite z-score": 0.411}
{"Compound": "CCCC=C(CCC)[C@@H](NC(=O)c1cccs1)c1ccc(C(=O)OC)cc1", "composite z-score": 0.657}
{"Compound": "COc1ccc([Si](C)(C)[C@@H]2[C@@H](CC(=O)N3Cc4ccccc4C[C@H]3CO)O[C@]3(C(=O)N(Cc4ccc(N5C(=O)c6cccc7cccc5c67)cc4)c4ccccc43)[C@H]2C)cc1", "composite z-score": 0.645}
{"Compound": "CCCC=C(CCC)[C@@H](NC(=O)C(C)(C)C)c1ccc(C(=O)OC)cc1", "composite z-score": -0.0649}
